Measured MFI at 33.3 nM, listed per entry for reference.
- Tested On: T1, human CD28 (human, UniProt P10747 19-220)
- T1 construct: whole, on cells; Jurkat/IL2 reporter cells, which endogenously express CD28
- Protocol Description: flow cytometry, Jurkat/IL2 reporter cells (endogenous CD28), 33.3 nM Fc fusion, PE anti-human Fc
Respond numerically; units are MFI and should not be typed.

Here are 3 binders together with their reported answers.
Binder | MFI at 33.3 nM [MFI]
variant CD80 IgV-Fc (inert) H18V/A26G/E35D/M47V/V68M/A71G/D90G (Fc fusion, not shown: inert human IgG1 Fc) VIHVTKEVKEVATLSCGVNVSVEELGQTRIYWQKDKKMVLTMMSGDVNIWPEYKNRTIFDITNNLSIMILGLRPSDEGTYECVVLKYEKGAFKREHLAEVTLSVKAD | 8190
variant CD80 IgV-Fc (inert) H18Y/A26P/E35D/M47I/V68M/A71G (Fc fusion, not shown: inert human IgG1 Fc) VIHVTKEVKEVATLSCGYNVSVEELPQTRIYWQKDKKMVLTMMSGDINIWPEYKNRTIFDITNNLSIMILGLRPSDEGTYECVVLKYEKDAFKREHLAEVTLSVKAD | 5120
variant CD80 IgV-Fc (inert) H18F/A26D/E35D/D46E/M47T/V68M/A71G/D90G (Fc fusion, not shown: inert human IgG1 Fc) VIHVTKEVKEVATLSCGFNVSVEELDQTRIYWQKDKKMVLTMMSGETNIWPEYKNRTIFDITNNLSIMILGLRPSDEGTYECVVLKYEKGAFKREHLAEVTLSVKAD | 6030

stdin: Dear colleague, I am looking for the recorded MFI at 33.3 nM of the following binder: variant CD80 IgV-Fc (inert) H18I/A26P/E35D/M47V/V68M/A71G (Fc fusion, not shown: inert human IgG1 Fc) VIHVTKEVKEVATLSCGINVSVEELPQTRIYWQKDKKMVLTMMSGDVNIWPEYKNRTIFDITNNLSIMILGLRPSDEGTYECVVLKYEKDAFKREHLAEVTLSVKAD
stdout: 2570

stdin: Proceed to variant CD80 IgV-Fc (inert) H18Y/A26P/E35D/M47V/V68M/A71G (Fc fusion, not shown: inert human IgG1 Fc) VIHVTKEVKEVATLSCGYNVSVEELPQTRIYWQKDKKMVLTMMSGDVNIWPEYKNRTIFDITNNLSIMILGLRPSDEGTYECVVLKYEKDAFKREHLAEVTLSVKAD
stdout: 6910

stdin: Proceed to variant CD80 IgV-Fc (inert) H18Y/E35D/M47V/V68M/A71G (Fc fusion, Fc fusions are dimeric by the general description; not shown: inert human IgG1 Fc) VIHVTKEVKEVATLSCGYNVSVEELAQTRIYWQKDKKMVLTMMSGDVNIWPEYKNRTIFDITNNLSIMILGLRPSDEGTYECVVLKYEKDAFKREHLAEVTLSVKAD
stdout: 3230

stdin: Proceed to variant CD80 IgV-Fc (inert) H18V/A26K/E35D/M47L/V68M/A71G (Fc fusion, not shown: inert human IgG1 Fc) VIHVTKEVKEVATLSCGVNVSVEELKQTRIYWQKDKKMVLTMMSGDLNIWPEYKNRTIFDITNNLSIMILGLRPSDEGTYECVVLKYEKDAFKREHLAEVTLSVKAD
stdout: 3640

stdin: Proceed to variant CD80 IgV-Fc (inert) H18V/E35D/M47V/V68M/A71G/D90G (Fc fusion, not shown: inert human IgG1 Fc) VIHVTKEVKEVATLSCGVNVSVEELAQTRIYWQKDKKMVLTMMSGDVNIWPEYKNRTIFDITNNLSIMILGLRPSDEGTYECVVLKYEKGAFKREHLAEVTLSVKAD
stdout: 2120

stdin: Proceed to variant CD80 IgV-Fc (inert) A26P/E35D/M47I/V68M/A71G/D90G (Fc fusion, not shown: inert human IgG1 Fc) VIHVTKEVKEVATLSCGHNVSVEELPQTRIYWQKDKKMVLTMMSGDINIWPEYKNRTIFDITNNLSIMILGLRPSDEGTYECVVLKYEKGAFKREHLAEVTLSVKAD
stdout: 8190

stdin: Proceed to variant CD80 IgV-Fc (inert) H18V/A26Q/E35D/M47V/V68L/A71G/D90G (Fc fusion, not shown: inert human IgG1 Fc) VIHVTKEVKEVATLSCGVNVSVEELQQTRIYWQKDKKMVLTMMSGDVNIWPEYKNRTIFDITNNLSILILGLRPSDEGTYECVVLKYEKGAFKREHLAEVTLSVKAD
stdout: 3130
